System: OVCAR-5 ovarian
Experiment: NCI-60 one-dose screen, 48 h
Conditions: 10 µM unless noted
Compounds without any hit were thinned out: in the full panel of roughly 83,000, 20% have a hit. Activity calls are given as the source filed them. How the source made its calls: active means growth percent below 10; inactive means the rest.
Classes to choose from: active, inactive

1) O=C1/C(=C\c2cn(-c3ccccc3)nc2-c2ccc(-c3cccs3)cc2)CCc2ccccc21	inactive
2) COc1ccc2[nH]cc(-c3nc(-c4cn(C)c5c(Cl)nccc45)cs3)c2c1	inactive
3) COC(C(=O)[C@@H](O)[C@@H](C)O)[C@@H]1Cc2cc3cc(O[C@H]4C[C@@H](O[C@H]5C[C@@H](O)[C@H](O)C(C)O5)[C@H](O)C(C)O4)cc(O)c3c(O)c2C(=O)[C@H]1O[C@H]1C[C@@H](O[C@H]2C[C@@H](O[C@H]3C[C@@H](OC)[C@H](O)C(C)O3)[C@@H](O)C(C)O2)[C@H](O)C(C)O1 (some centres not stated)	inactive
4) COc1ccc2c(c1)[n+]([O-])c(C(=O)/C=C/C=C(\Cl)c1cc(OC)c(OC)c(OC)c1)c(C)[n+]2[O-]	inactive
5) COc1ccc(C2=Nc3c/c(=C\c4c(O)[nH]c5ccc(Cl)cc45)ccc3=N2)cc1	inactive
6) CCn1c(SCC(=O)c2ccc(Br)cc2)nnc1-c1ccncc1	inactive
7) CCOC(=O)c1cc(C(=O)c2cc(OC)c(OC)c(OC)c2)n2ccc(-c3ccncc3)cc12	inactive
8) Fc1cc2c(cc1Cl)N(c1ncnc3ccc(-c4cnc5[nH]ncc5c4)cc13)CC2	inactive

Assay result, entry `COc1cc(C(=O)n2nc(N3CCN(C)CC3)c3cc(N)ccc32)cc(OC)c1OC` — outcome?
inactive

Assay result, entry `CC(C)(C)n1cc(-c2ccnc(NCCCNS(=O)(=O)c3ccc(F)cc3)c2)c(-c2cccc(F)c2)n1` — outcome?
inactive

Assay result, entry C1=CN2CC(c3ccccc3)=NNC2c2ccccc21 (configuration not stated) — outcome?
inactive

Assay result, entry `COc1ccc2nc3ccc(OC)cc3c(SCCCN)c2c1` — outcome?
inactive

Assay result, entry `CCCCCC(=O)OCC(=O)O[C@@H]1C[C@]2(C(C)C)O[C@@]1(C)[C@@H]1CC[C@@H](C)[C@H]1[C@@H]2OC(=O)/C=C/c1ccccc1` — outcome?
inactive

Assay result, entry `Cc1ccc(-c2nc(/C=C3/C(=O)Nc4ccccc43)c3ccccn23)cc1` — outcome?
inactive

Assay result, entry `Fc1cccc(CNc2c3ccccc3nc3ccccc23)c1F` — outcome?
inactive

Assay result, entry `Nc1c(C(=O)Nc2ccncc2)sc2nc3c(cc12)CCCCCC3` — outcome?
inactive

Assay result, entry CC1(c2ccccc2O)NN=C(/N=C/c2cccc([N+](=O)[O-])c2)N1C(Cc1c[nH]c2ccccc12)C(=O)O (configuration not stated) — outcome?
inactive

Assay result, entry `COc1ccc(-c2ccc3cnc4sc(-c5ccc(OC)cc5)nc4c3n2)cc1` — outcome?
inactive

Assay result, entry `O=C(/C=C(/C=C/c1cccc2[nH]ccc12)OB(F)F)/C=C/c1cccc2[nH]ccc12` — outcome?
active

Assay result, entry `O=C(NCCCCNC(=O)OCc1ccc2c(Cl)cc(Cl)c(O)c2n1)OCc1ccc2c(Cl)cc(Cl)c(O)c2n1` — outcome?
inactive

Assay result, entry `CCN(CC)CCSc1nc(-c2ccccc2)c(C#N)c(=O)[nH]1` — outcome?
inactive

Assay result, entry `CN1C(=O)/C(=C/c2cn(-c3ccccc3)nc2-c2ccccc2)SC1=S` — outcome?
inactive

Assay result, entry `COc1ccc2[nH]cc(C(c3cc(F)cc(F)c3)c3c[nH]c4ccc(OC)cc34)c2c1` — outcome?
inactive

Assay result, entry `Brc1c2c(c(Br)c3ccccc13)CCCC2` — outcome?
inactive

Assay result, entry `COc1ccc(C(=O)Nc2ncc(Cc3ccc(F)cc3)s2)cc1` — outcome?
inactive

Assay result, entry `CC1=NN(c2nc(SCC(=O)Nc3nc4ccc(C)cc4s3)nc(-c3ccccc3)c2C#N)C(=O)C1` — outcome?
inactive

Assay result, entry `C#CCn1cnc2c(Nc3cccc(NC(=O)C=C)c3)ncnc21` — outcome?
inactive

Assay result, entry `Clc1ccc2c(c1)N(c1ncnc3ccc(-c4cnc5[nH]ncc5c4)cc13)CC2` — outcome?
inactive
